System: Candida tropicalis
EXPERIMENT_NOTES: Minimum concentration required to inhibit the growth of Candida tropicalis
Type: functional
Reported MIC values are given for each entry in this list.

Before answering, review these 4 worked examples.
Answer with the recorded MIC for the compound listed here: `CC(C)C(C(C)C)N(Cc1c[nH]cn1)S(=O)(=O)c1ccc(-c2ccc(F)cc2)cc1`
≤ 0.1 µM

Answer with the recorded MIC for the compound listed here: CCC(C)n1ncn(-c2ccc(N3CCN(c4ccc(OCC5COC(Cn6cncn6)(c6ccc(Cl)cc6Cl)O5)cc4)CC3)cc2)c1=O (configuration not stated)
0.1 µM

Answer with the recorded MIC for the compound listed here: CCCCOc1ccc(S(=O)(=O)N(Cc2c[nH]cn2)C(CC)C2CCCCC2)cc1 (configuration not stated)
1 µM

Answer with the recorded MIC for the compound listed here: `C[C@@H](c1ncncc1F)[C@](O)(Cn1cncn1)c1ccc(F)cc1F`
1 µM

***
Answer with the recorded MIC for the compound listed here: `O=S(=O)(c1ccc(CNCCc2ccc(Cl)cc2Cl)cc1)N(Cc1c[nH]cn1)CC1CCCCC1`
1 µM

Answer with the recorded MIC for the compound listed here: `CCCCOc1ccc(S(=O)(=O)N(CCc2ccc(F)cc2)Cc2c[nH]cn2)cc1`
≤ 0.1 µM

Answer with the recorded MIC for the compound listed here: `O=S(=O)(c1ccc(N2CCN(c3ccc(F)cc3)CC2)cc1)N(Cc1c[nH]cn1)CC1CCCCC1`
≤ 0.1 µM

---

System: Aspergillus fumigatus
EXPERIMENT_NOTES: Minimum concentration required to inhibit the growth of Aspergillus fumigatus
Assay type: functional
Reported MIC values are given for each entry in this list.

Before answering, review these 3 worked examples.
Answer with the recorded MIC for the compound listed here: `O=S(=O)(c1ccc(N2CCN(c3ccc(F)cc3)CC2)cc1)N(Cc1c[nH]cn1)CC1CCCCC1`
> 10 µM

Answer with the recorded MIC for the compound listed here: `O=S(=O)(c1ccc(CNCCc2ccc(Cl)cc2Cl)cc1)N(Cc1c[nH]cn1)CC1CCCCC1`
> 10 µM

Answer with the recorded MIC for the compound listed here: `CCCCOc1ccc(S(=O)(=O)N(CCc2ccc(F)cc2)Cc2c[nH]cn2)cc1`
> 10 µM

Pending compound:
Answer with the recorded MIC for the compound listed here: CCCCOc1ccc(S(=O)(=O)N(Cc2c[nH]cn2)C(CC)C2CCCCC2)cc1 (centres undefined)
> 10 µM
